Target: Beta-3 adrenergic receptor (Homo sapiens)
Sequence (P13945 whole entry): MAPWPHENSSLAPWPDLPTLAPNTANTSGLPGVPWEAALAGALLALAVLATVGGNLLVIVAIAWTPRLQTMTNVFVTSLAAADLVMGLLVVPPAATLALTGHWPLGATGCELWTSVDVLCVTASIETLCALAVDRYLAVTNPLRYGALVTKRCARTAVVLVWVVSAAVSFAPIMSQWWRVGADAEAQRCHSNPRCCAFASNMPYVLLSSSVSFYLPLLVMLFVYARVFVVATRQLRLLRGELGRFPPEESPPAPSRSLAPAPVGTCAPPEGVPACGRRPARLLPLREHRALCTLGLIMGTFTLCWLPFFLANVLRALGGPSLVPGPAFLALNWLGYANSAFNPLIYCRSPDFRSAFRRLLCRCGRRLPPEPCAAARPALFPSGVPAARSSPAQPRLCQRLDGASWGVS

input-smiles | EC50
OCc1cc([C@@H](O)CNCCCCCCOCCOCc2ccc(O)cc2)ccc1O | 63.1 nM
NS(=O)(=O)c1cccc(COCCOCCCCCCNC[C@H](O)c2ccc(O)c(CO)c2)c1 | 126 nM
CS(=O)(=O)Nc1cccc(COCCOCCCCCCNC[C@H](O)c2ccc(O)c(CO)c2)c1 | 79.4 nM
CC(=O)O.OCc1cc([C@@H](O)CNCCCCCCOCCOCc2cccc3ccccc23)ccc1O | 5.01 nM
OCCOCCCCCCNC[C@H](O)c1ccc(O)c(CO)c1 | 12600 nM

###

Assay: Cmax in Han Wistar rat at 2 mg/kg, po after 8 hrs by LC/MS/MS analysis
Assay type: ADME, organism-based
Set-up: dose 2 mg/kg, route oral
Conditions: in vivo
assay-endpoint: Cmax

compound | observed-value
CC(=O)O.OCc1cc([C@@H](O)CNCCCCCCOCCOCc2c(Cl)cccc2Cl)ccc1O [VILANTEROL ACETATE] | < 2 ng/mL

###

Assay: Half life in Han Wistar rat at 0.25 mg/kg, iv by LC/MS/MS analysis
Format: ADME, organism-based
Parameters: dose 0.25 mg/kg, route intravenous
Details: in vivo

compound | half-life / min
CC(=O)O.OCc1cc([C@@H](O)CNCCCCCCOCCOCc2c(Cl)cccc2Cl)ccc1O [VILANTEROL ACETATE] | 48

###

Experiment: Volume of distribution at steady state in Han Wistar rat at 0.25 mg/kg, iv after 8 hrs by LC/MS/MS analysis
Format: ADME, organism-based
Parameters: dose 0.25 mg/kg, route intravenous
Settings: in vivo, read-out: Vdss
assay-endpoint: Vd

compound | observed-value
CC(=O)O.OCc1cc([C@@H](O)CNCCCCCCOCCOCc2c(Cl)cccc2Cl)ccc1O [VILANTEROL ACETATE] | 4.4 L/kg

###

Biological target: Beta-1 adrenergic receptor (Homo sapiens)
Sequence (P08588 whole entry): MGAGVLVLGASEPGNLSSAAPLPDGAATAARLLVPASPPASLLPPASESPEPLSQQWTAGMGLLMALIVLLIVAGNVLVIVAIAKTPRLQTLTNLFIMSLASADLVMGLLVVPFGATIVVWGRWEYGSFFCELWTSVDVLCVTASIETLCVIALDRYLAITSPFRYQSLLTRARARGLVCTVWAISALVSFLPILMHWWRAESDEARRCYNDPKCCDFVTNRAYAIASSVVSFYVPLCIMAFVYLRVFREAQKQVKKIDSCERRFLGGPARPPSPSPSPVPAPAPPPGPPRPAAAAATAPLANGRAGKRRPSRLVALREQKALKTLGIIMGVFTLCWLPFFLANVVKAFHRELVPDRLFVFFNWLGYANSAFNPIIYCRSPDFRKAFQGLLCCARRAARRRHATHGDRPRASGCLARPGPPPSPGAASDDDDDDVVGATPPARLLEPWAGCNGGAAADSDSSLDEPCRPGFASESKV
Classify: label 1 when EC50 is strictly less than 30 nM; label 0 when EC50 is not.

input-smiles | class-label
NS(=O)(=O)c1cccc(COCCOCCCCCCNC[C@H](O)c2ccc(O)c(CO)c2)c1 | label 0
CC(=O)O.Cc1cc(C)cc(COCCOCCCCCCNC[C@H](O)c2ccc(O)c(CO)c2)c1 | label 1
CS(=O)(=O)Nc1cccc(COCCOCCCCCCNC[C@H](O)c2ccc(O)c(CO)c2)c1 | label 1
OCc1cc([C@@H](O)CNCCCCCCOCCOCc2ccc(O)cc2)ccc1O | label 0
OCc1cc([C@@H](O)CNCCCCCCOCCOCc2cc(Cl)ccc2Cl)ccc1O | label 1
CC(=O)O.OCc1cc([C@@H](O)CNCCCCCCOCCOCc2ccccc2)ccc1O | label 0
NC(=O)Nc1cccc(COCCOCCCCCCNC[C@H](O)c2ccc(O)c(CO)c2)c1 | label 1
NS(=O)(=O)c1ccc(COCCOCCCCCCNC[C@H](O)c2ccc(O)c(CO)c2)cc1 | label 0
OCc1cc([C@@H](O)CNCCCCCCOCCOCc2cccc(O)c2)ccc1O | label 1
CC(=O)O.OCc1cc([C@@H](O)CNCCCCCCOCCOCc2cccc3ccccc23)ccc1O | label 1

###

Test: Plasma clearance in Han Wistar rat at 0.25 mg/kg, iv after 8 hrs by LC/MS/MS analysis
Type: ADME, organism-based
Parameters: dose 0.25 mg/kg, route intravenous

molecule | clearance, L/h/kg
CC(=O)O.OCc1cc([C@@H](O)CNCCCCCCOCCOCc2c(Cl)cccc2Cl)ccc1O [VILANTEROL ACETATE] | 7.38

Origin of the recorded values: ChEMBL document CHEMBL1155518
